Each recorded value in this set is attributed to ChEMBL document CHEMBL4152343.

Measured Papp by item
assay: Permeability of compound at pH 7.4 by PAMPA; assay type: ADME; conditions: read-out: permeability
Lab book: enter the figure in ×10⁻⁶ cm/s, no units written.

Entry "C[C@@H]1CN(c2cccc3c2C[C@H](CN(C)[C@H]2CCCc4cccnc42)NC3)C[C@H](C)N1C" , Papp reported as 14.2

In plain terms, "CCN(C[C@H]1Cc2c(cccc2N2CCNCC2)CN1)[C@H]1CCCc2cccnc21" has a documented Papp of 7.5

###

assay: Metabolic stability in mouse liver microsomes assessed as parent compound remaining after 10 mins by LC-MS/MS analysis; format: ADME, microsome; conditions: read-out: Stability
observation type: remaining at 10 min (%)
Enter your answer as a number in %; do not include the unit.

Entry "CCCN(C[C@H]1Cc2c(cccc2N2CCNCC2)CN1)[C@H]1CCCc2cccnc21" ; remaining at 10 min = 87.4

Given item "CCN(C[C@H]1Cc2c(cccc2N2CCNCC2)CN1)[C@H]1CCCc2cccnc21" , the value recorded as its remaining at 10 min is 53.8

Looking up "CN1CCN(c2cccc3c2C[C@H](CN(C)[C@H]2CCCc4cccnc42)NC3)CC1" , I see its remaining at 10 min listed as 17

remaining at 10 min recorded for this compound, "c1cnc2c(c1)CCC[C@@H]2N(CC1CC1)C[C@H]1Cc2c(cccc2N2CCNCC2)CN1" , is 88.3

For this compound ( "CN(C[C@H]1Cc2c(cccc2N2CCNCC2)CN1)[C@H]1CCCc2cccnc21" ), measured remaining at 10 min is 19.9

Recorded remaining at 10 min (compound "CC(C)N(C[C@H]1Cc2c(cccc2N2CCNCC2)CN1)[C@H]1CCCc2cccnc21" ): 91

Per the record, "CCN1CCN(c2cccc3c2C[C@H](CN(C)[C@H]2CCCc4cccnc42)NC3)CC1" has remaining at 10 min of 18.8

The reported remaining at 10 min of the compound "OCCN(C[C@H]1Cc2c(cccc2N2CCNCC2)CN1)[C@H]1CCCc2cccnc21" was 60.3

***
Short answer for "FC1(F)CCC(CN(C[C@H]2Cc3c(cccc3N3CCNCC3)CN2)[C@H]2CCCc3cccnc32)CC1" : remaining at 10 min was 76.6

Quick note, remaining at 10 min for "CN(C[C@H]1Cc2c(cccc2N2CCN(C3COC3)CC2)CN1)[C@H]1CCCc2cccnc21" landed at 50.8

Looking up "CN(C[C@H]1Cc2c(cccc2N2CCNC(C)(C)C2)CN1)[C@H]1CCCc2cccnc21" , I see its remaining at 10 min listed as 44

Recorded remaining at 10 min (compound "CN(C[C@H]1Cc2c(cccc2N2CCN(c3ncccn3)CC2)CN1)[C@H]1CCCc2cccnc21" ): 35.1

Entry under test: "CN(C[C@H]1Cc2c(cccc2N2CCN3CCC[C@H]3C2)CN1)[C@H]1CCCc2cccnc21" . Its remaining at 10 min was 40.1

The recorded remaining at 10 min for "CN(C[C@H]1Cc2c(cccc2N2CCN(c3ccccn3)CC2)CN1)[C@H]1CCCc2cccnc21" is 46.1

For record "CN1CCN(c2cccc3c2C[C@H](CN(C)[C@H]2CCCc4cccnc42)N(C)C3)CC1" the listed remaining at 10 min is 41.7

Quick note, remaining at 10 min for "CN(C[C@H]1Cc2c(cccc2N2CCN(Cc3ccccn3)CC2)CN1)[C@H]1CCCc2cccnc21" landed at 40.4
